Data provenance is PubChem BioAssay AID1963968.

Tested on: 945468-187-T-J3-PDC spheroids with HUVEC/MSC, viability;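 note: spheroids exposed to agents for 7 days before viability read; 100% = DMSO vehicle control viability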
Test name: Anticancer human tumor 945468-187-T-J3-PDC patient-derived rectal carcinoma cell line growth inhibition [PI3K]
Condition info: second compound 0.316 µM; first compound 0.0316 µM; active compounds read low
Readout name: viability, T/C (%)
Number only, in %; omit the unit.

Qu. Report viability, T/C for Cn1ncc(Cl)c1-c1cc(C(=O)NC(CN)Cc2cccc(F)c2)sc1Cl (stereo not given) + CC(Nc1ncnc2nc[nH]c12)c1cc2cccc(Cl)c2c(=O)n1-c1ccccc1 please.
Ans. 106

Qu. Which viability, T/C is listed for C[C@@H](NC(=O)c1ncnc(N)c1Cl)c1ncc(C(=O)Nc2cc(C(F)(F)F)c(Cl)cn2)s1 + CC(Nc1ncnc2nc[nH]c12)c1cc2cccc(Cl)c2c(=O)n1-c1ccccc1 ?
Ans. 95.7

Qu. Given the molecule CNC(=O)c1ccc(N2C(=S)N(c3ccc(C#N)c(C(F)(F)F)c3)C(=O)C2(C)C)cc1F + CC(Nc1ncnc2nc[nH]c12)c1cc2cccc(Cl)c2c(=O)n1-c1ccccc1 , what is its reported viability, T/C?
Ans. 99.5

Qu. Give its viability, T/C value. Item: CCN1CCN(Cc2ccc(Nc3ncc(F)c(-c4cc(F)c5nc(C)n(C(C)C)c5c4)n3)nc2)CC1 + CC(Nc1ccc2c(c1)OCCn1cc(N3C(=O)OCC3C(F)F)nc1-2)C(N)=O
Ans. 77.8

Qu. Please give the measured viability, T/C for this molecule: CC(=O)c1c(C)c2cnc(Nc3ccc(N4CCNCC4)cn3)nc2n(C2CCCC2)c1=O + CC(Nc1ccc2c(c1)OCCn1cc(N3C(=O)OCC3C(F)F)nc1-2)C(N)=O
Ans. 104

Qu. What does the data say about its viability, T/C? Entry: Cn1ncnc1[C@H]1c2n[nH]c(=O)c3cc(F)cc(c23)N[C@@H]1c1ccc(F)cc1 + COc1c(OCCCN2CCOCC2)ccc2c3n(c(=NC(=O)c4cnc(N)nc4)nc12)CCN3
Ans. 21.2

Qu. Recorded viability, T/C for Cn1ncc(Cl)c1-c1cc(C(=O)NC(CN)Cc2cccc(F)c2)sc1Cl (stereo not given) + Cc1nc(NC(=O)N2CCCC2C(N)=O)sc1-c1ccnc(C(C)(C)C(F)(F)F)c1 , please?
Ans. 114

Qu. Reported viability, T/C, molecule CCN1CCN(Cc2ccc(Nc3ncc(F)c(-c4cc(F)c5nc(C)n(C(C)C)c5c4)n3)nc2)CC1 + CC(Nc1ncnc2nc[nH]c12)c1cc2cccc(Cl)c2c(=O)n1-c1ccccc1 : ____
Ans. 89.8

Qu. Look at this molecule and give its reported viability, T/C. C#Cc1c(F)ccc2cc(O)cc(-c3ncc4c(N5CC6CCC(C5)N6)nc(OCC56CCCN5CC(F)C6)nc4c3F)c12 (stereo not given) + CC(Nc1ncnc2nc[nH]c12)c1cc2cccc(Cl)c2c(=O)n1-c1ccccc1
Ans. 100

Qu. Please give the measured viability, T/C for this molecule: Cn1ncc(Cl)c1-c1cc(C(=O)NC(CN)Cc2cccc(F)c2)sc1Cl (stereo not given) + COc1c(OCCCN2CCOCC2)ccc2c3n(c(=NC(=O)c4cnc(N)nc4)nc12)CCN3
Ans. 20.5
